Provenance of the data: PubChem BioAssay (NCI)

Test system: MDA-MB-468 breast
Experiment: NCI-60 one-dose screen, 48 h
Conditions: 10 µM unless noted
Procedure: Growth inhibition of the MDA-MB-468 human Breast tumor cell line is measured as a screen for anti-cancer activity. Cells are grown in 96 well plates and exposed to the test compound for 48 hours. Compounds are tested at a single concentration, which is 10^-5 M for most compounds. The reported endpoint is percent growth (GI% or GIPRCNT), where numbers from 0 - 100% represent growth inhibition, and numbers from -100% - 0 represent cell death. […]
Compounds without any hit were thinned out: in the full panel of roughly 83,000, 20% have a hit. Activity calls are given as the source filed them. Rule for the calls: active = growth percent below 10; inactive = the rest.
// classify into yes (active), no (inactive)

Record excerpt, results attached:
>>> category_label("C=C(CNCCc1ccc(O)cc1)[C@@H]1CC[C@]2(COC3CCCCO3)CC[C@]3(C)[C@H](CC[C@@H]4[C@@]5(C)CCC(NCCO)C(C)(C)[C@@H]5CC[C@]43C)[C@@H]12 (some centres undefined)")
"yes"
>>> category_label("COC(=O)N1CCN(CCNCc2ccc(NC(=O)c3ccc(C)c(C#Cc4cnc5cccnn45)c3)cc2C(F)(F)F)CC1")
"yes"

# outcome recorded in this test, key = COc1cc(OC)c(C2C(Cl)C(=O)N2Nc2ncnc3ccccc23)cc1OC (centres undefined)
no

# outcome recorded in this test, key = `Cc1cc(C(=O)/C=C/c2ccc[nH]2)ccc1-n1ccc(C(F)(F)F)n1`
no

# outcome recorded in this test, key = CC(=O)OC/C(C)=C\CC(C)COC(C)=O (centres undefined)
no

# outcome recorded in this test, key = `CSc1nc(N)c(N=Nc2ccc(S(=O)(=O)Nc3nnc(C)s3)cc2)c(=O)[nH]1`
no

# outcome recorded in this test, key = COc1ccc(C(c2ccc(OCCN(C)C)cc2)c2cc3ccccc3c3ccccc23)cc1 (centres undefined)
yes

# outcome recorded in this test, key = `CNC(=O)c1cncc(Cn2nc(C)c(NC(=O)c3ccc(COc4ccc(C(F)(F)F)cc4C)cc3)c2C)c1`
no

# outcome recorded in this test, key = COc1ccc(C(O)c2cc3c(N)c(C(=O)Nc4cccc(Cl)c4)sc3nc2C)cc1 (centres undefined)
no

====

test system: MDA-MB-468 breast; experiment: NCI-60 one-dose screen, 48 h; details: 10 µM unless noted
This is part of a sample that, as a whole, favours compounds with a hit. Of some 83,000 tested, about 20% had one in any assay. Activity calls are given as the source filed them. Rule for the calls: active = growth percent below 10; inactive = the rest.
// classify into active, inactive

Record excerpt, results attached:
>>> category_label("Fc1ccc([C@@H]2CCNC[C@H]2COc2ccc3c(c2)OCO3)cc1")
"inactive"
>>> category_label("Cc1ccc(C2CC(c3ccc(Nc4nc(NCCO)nc(NCCO)n4)cc3)=NN2c2ccc(Cl)cc2)cc1 (stereo not given)")
"inactive"
>>> category_label("C=C(C)[C@@H]1CC[C@]2(C)[C@H](CC=C3[C@@H]4[C@@H](C)[C@H](C)CC[C@]4(C(N)=O)CC[C@]32C)[C@@]1(C)CCC#N")
"active"
>>> category_label("O=[N+]([O-])c1cccc(/C=C/c2ccc3ccccc3n2)c1")
"inactive"

# outcome recorded in this test, key = `N#Cc1c(N)nc(N)nc1Nc1ccc(Br)cc1`
inactive

# outcome recorded in this test, key = `CC(=O)N1C/C(=C/c2ccc(Cl)cc2)C(=O)/C(=C/c2ccc(Cl)cc2)C1`
active

# outcome recorded in this test, key = `CCCCCCCCCCNCCSS(=O)(=O)O`
inactive

# outcome recorded in this test, key = `Cc1ccc(C(=O)Nc2cccc(C#Cc3cccc4[nH]nc(N)c34)c2)cc1C(F)(F)F`
inactive

# outcome recorded in this test, key = `O=C(/C=C/c1ccc(C(F)(F)F)cc1)Nc1ccc(C=C2c3ccccc3C(=O)c3ccccc32)cc1`
inactive

# outcome recorded in this test, key = `CC(C)CCC[C@@H](C)[C@H]1CC[C@H]2[C@@H](Nc3ccc(O)cc3)CCC[C@]12C`
active

====

Catalogue of growth readings, one per entry.
tested on: MDA-MB-468 breast; assay: NCI-60 one-dose screen, 48 h (100 = growth as untreated, 0 = no growth, -100 = all killed); conditions: 10 µM unless noted
About 83,000 compounds went through this panel and 20% of them were active in at least one assay; those are over-represented in the sample as a whole. Activity calls are given as the source filed them. How the source made its calls: active means growth percent below 10; inactive means the rest.

>>> measurement("CO[C@H](C(=O)[C@@H](O)[C@@H](C)O)[C@@H]1Cc2cc3cc(O[C@H]4C[C@@H](O[C@H]5C[C@@H](O)[C@H](O)C(C)O5)[C@H](O)C(C)O4)c(C)c(O)c3c(O)c2C(=O)[C@H]1O[C@H]1C[C@@H](O[C@H]2C[C@@H](O[C@H]3C[C@](C)(O)C(=O)C(C)O3)[C@@H](O)C(C)O2)[C@H](O)C(C)O1 (some centres not stated)")
"-46.7% (active)"
>>> measurement("C#CCn1cnc2c(Nc3cccc(NC(=O)C=C)c3)ncnc21")
"78% (inactive)"
>>> measurement("N#Cc1ccccc1-c1ccc(Cn2c(-c3cscn3)nc3c(Cl)cccc32)cc1")
"55.7% (inactive)"

Which measured growth value corresponds to `CS(=O)(=O)Nc1cc(-c2ccc3ncnc(Nc4ccc(F)c(Cl)c4)c3c2)ccc1Cl` ?
-32% (active)

Which measured growth value corresponds to `O=C(c1ccccc1)N(CCCCl)C(=O)N(CCCCl)C(=O)c1ccccc1` ?
94.2% (inactive)

Which measured growth value corresponds to COCCN(C(=O)Cc1cccs1)C(C(=O)NCc1ccc(OC)cc1)c1ccc(C(C)C)cc1 (configuration not stated) ?
90.7% (inactive)

====

System: MDA-MB-468 breast
Assay: NCI-60 one-dose screen, 48 h
Conditions: 10 µM unless noted
Protocol: Growth inhibition of the MDA-MB-468 human Breast tumor cell line is measured as a screen for anti-cancer activity. Cells are grown in 96 well plates and exposed to the test compound for 48 hours. Compounds are tested at a single concentration, which is 10^-5 M for most compounds. The reported endpoint is percent growth (GI% or GIPRCNT), where numbers from 0 - 100% represent growth inhibition, and numbers from -100% - 0 represent cell death. […]
Compounds without any hit were thinned out: in the full panel of roughly 83,000, 20% have a hit. Activity calls are given as the source filed them. How the source made its calls: active means growth percent below 10; inactive means the rest.
// classify into active, inactive

>>> category_label("CC1CCC(C(C)C)C(NN)C1 (stereo not given)")
"inactive"
>>> category_label("CCCc1n(Cc2ccc3ccccc3c2)c2ccccc2[n+]1Cc1ccc2ccccc2c1")
"active"
>>> category_label("CCc1nc2cc(F)c(/C=C/C(=O)NO)cc2c(=O)n1CCc1ccccc1")
"active"
>>> category_label("c1ccc2[nH]c(-c3ccc(Nc4nc(N5CCCC5)nc5[nH]ncc45)cc3)nc2c1")
"active"
>>> category_label("COc1ccc(C2=NN(C(=O)c3cc(OC)c(OC)c(OC)c3)C(c3ccc(N(C)C)cc3)C2)cc1 (stereo not given)")
"inactive"

# outcome recorded in this test, key = `CSc1nc2[nH]ncc2c(=O)[nH]1`
inactive

# outcome recorded in this test, key = `Cc1ccc(Nc2cc(Cl)c([N+](=O)[O-])cc2[N+](=O)[O-])cc1`
active

# outcome recorded in this test, key = `O=C(Nc1nc2ccc([N+](=O)[O-])cc2s1)Nc1ccccc1Cl`
inactive

# outcome recorded in this test, key = `C=C(C)[C@@H]1CC[C@]2(COCCCN)CC[C@]3(C)[C@H](CC[C@@H]4[C@@](C)(CCCNCCCN)[C@H](C(=C)C)CC[C@]43C)[C@@H]12`
active

# outcome recorded in this test, key = `COc1ccc(/C=C(\C#N)c2ccccc2)cc1`
inactive

====

tested on: MDA-MB-468 breast; experiment: NCI-60 one-dose screen, 48 h (100 = growth as untreated, 0 = no growth, -100 = all killed); settings: 10 µM unless noted
Compounds without any hit were thinned out: in the full panel of roughly 83,000, 20% have a hit. The source made the active and inactive calls. The calls were made as follows: active = growth percent below 10; inactive = the rest.
Catalogue of growth readings, one per entry.

Take a look at these entries with their results.
>>> measurement("Nc1ccn(C2OC(F)(CO)C(O)C2F)c(=O)n1 (stereo not given)")
"76.2% (inactive)"
>>> measurement("COc1ccc2[nH]cc(/C=N/Nc3ccnc4cc(Cl)ccc34)c2c1")
"-80.8% (active)"
>>> measurement("CCOC(=O)C1C(=O)NC(C(=O)OCC)(C(=O)OCC)C1CC (stereo not given)")
"108% (inactive)"
>>> measurement("CCCNc1nc2ccccc2c2c(=O)c3cccc(Cl)c3sc12")
"36.2% (inactive)"
>>> measurement("C=C(C)c1ccc(/C=N/NC(N)=S)cc1")
"70.6% (inactive)"

Which measured growth value corresponds to `Cc1c(C(=O)C(SC(=S)N2CCOCC2)SC(=S)N2CCOCC2)nnn1-c1ccc([N+](=O)[O-])cc1` ?
92.7% (inactive)

Which measured growth value corresponds to `O=C(Nc1ccccc1)Nc1cccc(-n2cc(-c3ccncc3)c(-c3ccc(O)c(Cl)c3)n2)c1` ?
54.8% (inactive)

Which measured growth value corresponds to `CC[N+](CC)(CCOCCOCC[N+](CC)(CC)Cc1ccc([N+](=O)[O-])cc1)Cc1ccc([N+](=O)[O-])cc1` ?
97.9% (inactive)

Which measured growth value corresponds to `Nc1c(C(=O)c2ccccc2)sc2nc(-c3cccs3)cc(-c3cccs3)c12` ?
30.8% (inactive)

Which measured growth value corresponds to Clc1cccc(C2Cc3cnccc3-c3[nH]c4ccncc4c32)c1 (stereo not given) ?
5.96% (active)
